Where do these numbers come from? They come from ChEMBL document CHEMBL3992553.

system: Mycobacterium tuberculosis; assay: Antimycobacterial activity against Mycobacterium tuberculosis H37Rv after 7 days by REMA; assay type: functional; conditions: 168 h
MEASURE: MIC

A selection of reference data follows.
CC(C)(C)NC(=O)C1(C)CCC(=O)N1/N=C/c1ccc([N+](=O)[O-])o1 (stereo unspecified)    > 100 µM
CC(C)(C)NC(=O)C1(C)COCC(=O)N1/N=C/c1ccc([N+](=O)[O-])o1 (stereo unspecified)    > 100 µM
CC1(C(=O)NCc2ccccc2)CCC(=O)N1/N=C/c1ccc([N+](=O)[O-])o1 (stereo unspecified)    > 100 µM
CC1(C(=O)NCc2ccccc2)CCCC(=O)N1/N=C/c1ccc([N+](=O)[O-])o1 (stereo unspecified)    65 µM
CC(C)(C)NC(=O)C1(C)CCCC(=O)N1/N=C/c1ccc([N+](=O)[O-])o1 (stereo unspecified)    71 µM

Could you now look at the following compound, please?
// query Bench note: what MIC did CC1(C(=O)NCc2ccc(Cl)cc2)CCC(=O)N1/N=C/c1ccc([N+](=O)[O-])o1 (stereo unspecified) show?
// result > 100 µM
